These data points were gathered from patent US20110172099A1.

- Test system: Botrytis cinerea
- assay: C2: gray mold on bell pepper leaves caused by Botrytis cinerea, 1 day protective application (comparison with the prior art)
- Assay type: in vivo
- condition-details: after 5 days, untreated control 100
measurement-name: Infection (%) at 600 ppm C2
Field format: number, assumed %, no unit text.

Recall the recorded Infection (%) at 600 ppm C2 for CC(C)(C)C(O)C(CCCc1ccccc1Cl)n1cncn1 (stereo not shown) [drawing 19] with Botrytis cinerea and state it.
7

Return Infection (%) at 600 ppm C2 measured with Botrytis cinerea given this compound: CC(C)(C)C(O)C(CCCc1ccccc1Cl)n1cncn1 (stereo not shown) [drawing 21]
10

For Botrytis cinerea, provide Infection (%) at 600 ppm C2 of CC(C)(C)C(O)C(CCCc1cccc(Cl)c1)n1cncn1 (stereo not shown) please.
15

Write down the reported Infection (%) at 600 ppm C2 of CC(C)(C)C(O)C(CCCc1ccc(Cl)cc1)n1cncn1 (stereo not shown) [reference compound] , test system: Botrytis cinerea.
70
